Biological target: Dipeptidyl peptidase 4 (Homo sapiens)
Sequence (P27487 whole entry): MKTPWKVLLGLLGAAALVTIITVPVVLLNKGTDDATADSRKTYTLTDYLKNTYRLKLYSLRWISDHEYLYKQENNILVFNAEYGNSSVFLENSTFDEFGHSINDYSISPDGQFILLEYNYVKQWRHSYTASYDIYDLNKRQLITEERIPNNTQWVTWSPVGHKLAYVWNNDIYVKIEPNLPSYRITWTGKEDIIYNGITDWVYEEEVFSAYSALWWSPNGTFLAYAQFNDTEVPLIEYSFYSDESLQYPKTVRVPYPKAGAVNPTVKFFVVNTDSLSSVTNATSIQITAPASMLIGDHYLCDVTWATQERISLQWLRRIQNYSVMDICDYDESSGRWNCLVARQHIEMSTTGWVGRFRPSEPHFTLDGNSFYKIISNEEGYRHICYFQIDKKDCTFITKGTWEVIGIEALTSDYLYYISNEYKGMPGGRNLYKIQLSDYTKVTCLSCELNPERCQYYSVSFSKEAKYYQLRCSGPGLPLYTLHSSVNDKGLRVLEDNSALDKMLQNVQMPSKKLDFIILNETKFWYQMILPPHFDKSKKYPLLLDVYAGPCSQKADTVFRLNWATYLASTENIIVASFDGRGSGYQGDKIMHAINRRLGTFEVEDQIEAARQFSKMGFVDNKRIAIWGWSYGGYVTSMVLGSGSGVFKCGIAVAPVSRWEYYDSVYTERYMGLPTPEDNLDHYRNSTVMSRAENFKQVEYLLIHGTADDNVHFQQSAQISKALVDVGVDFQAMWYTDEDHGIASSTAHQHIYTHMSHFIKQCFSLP
pIC50: −log10 of the molar value.

{"compound": "C=C(C)[C@@H]1CC[C@]2(C(=O)O)CC[C@]3(C)[C@H](CC[C@@H]4[C@@]5(C)CC[C@H](O)C(C)(C)[C@@H]5CC[C@]43C)[C@@H]12", "assay system": "Dipeptidyl peptidase 4 (Homo sapiens)", "pIC50": 4.25}
{"compound": "O=c1c(O)c(-c2ccc(O)c(O)c2)oc2cc(O)cc(O)c12", "assay system": "Dipeptidyl peptidase 4 (Homo sapiens)", "pIC50": 4.49}
{"compound": "CCOC(=O)c1c(O)cc(O)c2c1OC(c1ccc(O)cc1)CC2 (stereo not given)", "assay system": "Dipeptidyl peptidase 4 (Homo sapiens)", "pIC50": 3.94}
{"compound": "CCOC(=O)/C=C/c1ccc(O)c(O)c1 [ETHYL CAFFEATE]", "assay system": "Dipeptidyl peptidase 4 (Homo sapiens)", "pIC50": 4.06}
{"compound": "O=C(/C=C/c1ccc(O[C@@H]2O[C@H](CO)[C@@H](O)[C@H](O)[C@H]2O)cc1)c1ccc(O)cc1O", "assay system": "Dipeptidyl peptidase 4 (Homo sapiens)", "pIC50": 4.57}
{"compound": "COc1cc2cc(Oc3ccc4ccc(=O)oc4c3)c(=O)oc2cc1O", "assay system": "Dipeptidyl peptidase 4 (Homo sapiens)", "pIC50": 4.06}
{"compound": "O=c1c(O)c(-c2cc(O)c(O)c(O)c2)oc2cc(O)cc(O)c12", "assay system": "Dipeptidyl peptidase 4 (Homo sapiens)", "pIC50": 4.43}
{"compound": "O=C(O)/C=C/c1ccc(O)cc1", "assay system": "Dipeptidyl peptidase 4 (Homo sapiens)", "pIC50": 4.08}
{"compound": "CC[C@H](CC[C@@H](C)[C@H]1CC[C@H]2[C@@H]3CC=C4C[C@@H](O)CC[C@]4(C)[C@H]3CC[C@]12C)C(C)C", "assay system": "Dipeptidyl peptidase 4 (Homo sapiens)", "pIC50": 4.54}
{"compound": "COc1ccc2c(c1OC)CN(C)c1c-2ccc2cc3c(cc12)OCO3 [DIHYDROCHELERYTHRINE]", "assay system": "Dipeptidyl peptidase 4 (Homo sapiens)", "pIC50": 4.25}
